meta.source: the supplement of paper PMC13380429

# System: Vero E6 infected with SARS-CoV-2
# PROTOCOL DETAILS: morphology score (similarity to uninfected cells); higher = more like uninfected cells
# CONDITION SUMMARY: 24 h
Parameter threshold = 0.1. Response is Satisfied when morphology score meets or exceeds it, else Not satisfied.

CNC(=O)[C@H]1O[C@@H](n2cnc3c(NCc4cccc(I)c4)ncnc32)[C@H](O)[C@@H]1O (10 µM) :: Satisfied
CC(C)(Oc1ccc(Cl)cc1)C(=O)O [clofibric-acid] (10 µM) :: Not satisfied
Cc1nc[nH]c1CCN [4-methylhistamine] (10 µM) :: Satisfied
COc1ccc(C(Cl)=C(c2ccc(OC)cc2)c2ccc(OC)cc2)cc1 [chlorotrianisene] (10 µM) :: Not satisfied

Please find the next compound below.
Problem: Tell me whether morphology score is at least 0.1 here: NC(=O)CN1CC[C@@H](NC(=O)[C@@H]2CCCN2)C1=O (10 µM)
Solution: Not satisfied
